STUDY_TARGET: PDE4B (human recombinant) (Homo sapiens, UniProt Q07343)
Construct: made in house
Sequence (Q07343 1-564 isoform Q07343-2): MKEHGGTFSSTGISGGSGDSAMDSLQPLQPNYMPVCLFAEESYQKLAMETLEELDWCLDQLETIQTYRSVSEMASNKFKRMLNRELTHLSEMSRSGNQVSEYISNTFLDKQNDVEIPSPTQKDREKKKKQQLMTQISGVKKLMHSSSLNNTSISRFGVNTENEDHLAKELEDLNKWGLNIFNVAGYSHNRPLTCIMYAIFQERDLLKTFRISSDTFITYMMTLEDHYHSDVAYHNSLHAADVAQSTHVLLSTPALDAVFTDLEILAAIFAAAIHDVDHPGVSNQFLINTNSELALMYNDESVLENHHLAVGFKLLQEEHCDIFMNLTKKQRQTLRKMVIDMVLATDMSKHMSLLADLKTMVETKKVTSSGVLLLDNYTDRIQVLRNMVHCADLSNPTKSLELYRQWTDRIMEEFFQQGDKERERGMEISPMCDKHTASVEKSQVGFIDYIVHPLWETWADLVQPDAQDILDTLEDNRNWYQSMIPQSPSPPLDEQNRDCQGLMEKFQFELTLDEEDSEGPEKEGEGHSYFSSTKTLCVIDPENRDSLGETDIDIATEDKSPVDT
ASSAY_DETAILS: PDE4B inhibition, radioactive SPA and/or IMAP fluorescence polarisation (FP) assay
Assay type: biochemical
MEASUREMENT_SETUP: one reading or average of several (ca. 2-6) readings; SPA and/or FP assay; range given for a group of Examples; read-out: PDE4B pIC50 (±about 0.5) (converted)
MEASURED_ATTRIBUTE: IC50

These recorded examples may help you get a feel for the data.
> print(dat)
                                   compound    measured.value
1  CCn1ncc2c(NC3CCOCC3)c(C(=O)N[C@H](C)c3ccc(Br)cc3)cnc21  0.794 to 5.01 nM
2  CCn1ncc2c(NC3CCCC(O)C3)c(C(=O)NC(C)c3ccc(C)cc3)cnc21 (mixture of isomers)       0.1 to 2 nM
3  CCC(NC(=O)c1cnc2c(cnn2CC)c1NC1CCC(=O)CC1)c1ccc(Br)cc1 (stereo not shown)       0.1 to 2 nM

I have 4 compounds here; please give me IC50 for each one.
1. CCn1ncc2c(NC3CCOCC3)c(C(=O)N[C@H](COC)c3ccccc3)cnc21
2. CCn1ncc2c(NC3CCOCC3)c(C(=O)N[C@@H](C)c3ccccc3)cnc21
3. CCn1ncc2c(NC3CCOCC3)c(C(=O)N[C@@H](C)c3ccc(OC)cc3)cnc21
4. CC[C@H](NC(=O)c1cnc2c(cnn2CC)c1NC1CCOCC1)c1ccccc1

0.794 to 5.01 nM
31.6 to 70.8 nM
31.6 to 70.8 nM
31.6 to 70.8 nM
